biological target: ERα (Homo sapiens, UniProt P03372); construct: endogenous in cells; host or cells: MCF-7; experiment: ER degradation in MCF-7 cells (Western blot); type: cell-based; details: MCF7, Maximal ER degradation, read-out: Dmax
Can you tell me Dmax for the items I'm about to list?

CC/C(=C(\c1ccc(OCCN2CCN(CCCNc3ccc4c(c3)C(=O)N(C3CCC(=O)NC3=O)C4=O)CC2)cc1)c1ccc(B(O)O)cc1)c1ccccc1 (stereo not drawn): > 75%
CC/C(=C(/c1ccc(B(O)O)cc1)c1ccc(N2CCC(CCCN3CCN(c4ccc5c(c4)C(=O)N(C4CCC(=O)NC4=O)C5=O)CC3)CC2)cc1)c1ccccc1 (stereo not drawn): > 90%
CC/C(=C(/c1ccc(B2OC(C)(C)C(C)(C)O2)cc1)c1ccc(N2CCC(CCN3CCN(c4ccc5c(c4)CN(C4CCC(=O)NC4=O)C5=O)CC3)CC2)cc1)c1ccccc1 (stereo not drawn): > 90%
CC/C(=C(\c1ccc(B(O)O)cc1)c1ccc(N2CCN(C(=O)N3CCC(CN4CCN(c5ccc6c(c5)CN(C5CCC(=O)NC5=O)C6=O)CC4)CC3)CC2)cc1)c1ccccc1 (stereo not drawn): > 90%
CC/C(=C(/c1ccc(B(O)O)cc1)c1ccc(N2CCN(C(=O)N3CCN(c4ccc5c(c4)CN(C4CCC(=O)NC4=O)C5=O)CC3)CC2)cc1)c1ccccc1 (stereo not drawn): > 90%
CC/C(=C(\c1ccc(OCCN2CCC(CCN3CCN(c4ccc5c(c4)CN(C4CCC(=O)NC4=O)C5=O)CC3)CC2)cc1)c1ccc(B(O)O)cc1)c1ccccc1 (stereo not drawn): > 90%
CC/C(=C(\c1ccc(B(O)O)cc1)c1ccc(N2CCN(C(=O)N3CCN(c4ccc5c(c4)CN([C@H]4CCC(=O)NC4=O)C5=O)CC3)CC2)cc1)c1ccccc1: > 90%
CC/C(=C(\c1ccc(OCCN2CCN(CC3CCN(c4ccc5c(c4)CN(C4CCC(=O)NC4=O)C5=O)CC3)CC2)cc1)c1ccc(B(O)O)cc1)c1ccccc1 (stereo not drawn): > 90%
CC/C(=C(/c1ccc(OCCN2CCN(CCCNc3ccc4c(c3)C(=O)N(C3CCC(=O)NC3=O)C4=O)CC2)cc1)c1ccc(B(O)O)cc1)c1ccccc1 (stereo not drawn): > 75%
CC/C(=C(\c1ccc(OCCN2CCC(N3CCN(c4ccc5c(c4)C(=O)N(C4CCC(=O)NC4=O)C5=O)CC3)CC2)cc1)c1ccc(B(O)O)cc1)c1ccccc1 (stereo not drawn): > 90%

For the 5 compounds below, give their Dmax values.
1. CC/C(=C(/c1ccc(B(O)O)cc1)c1ccc(N2CCN(CCCC3CCN(c4ccc5c(c4)C(=O)N(C4CCC(=O)NC4=O)C5=O)CC3)CC2)cc1)c1ccccc1 (stereo not drawn)
2. CC/C(=C(/c1ccc(OCCN2CCN(CC3CCN(c4ccc5c(c4)CN([C@@H]4CCC(=O)NC4=O)C5=O)CC3)CC2)cc1)c1ccc(B(O)O)cc1)c1ccccc1
3. CC/C(=C(\c1ccc(B(O)O)cc1)c1ccc(N2CCN(CCCN3CCN(c4ccc5c(c4)CN(C4CCC(=O)NC4=O)C5=O)CC3)CC2)cc1)c1ccccc1 (stereo not drawn)
4. CC/C(=C(/c1ccc(B(O)O)cc1)c1ccc(N2CCN(CCCN3CCN(c4ccc5c(c4)C(=O)N(C4CCC(=O)NC4=O)C5=O)CC3)CC2)cc1)c1ccccc1 (stereo not drawn)
5. CC/C(=C(\c1ccc(OCCN2CCC(CN3CCN(c4ccc5c(c4)CN([C@H]4CCC(=O)NC4=O)C5=O)CC3)CC2)cc1)c1ccc(B(O)O)cc1)c1ccccc1

Result:
1. > 75%
2. > 90%
3. > 90%
4. > 90%
5. > 90%

---

target: ERα (Homo sapiens, UniProt P03372); construct: endogenous in cells; host or cells: MCF-7; assay: ER degradation in MCF-7 cells (Western blot); type: cell-based; conditions: ER degradation, 24 hours
Can you tell me DC50 for the items I'm about to list?

CC/C(=C(\c1ccc(B(O)O)cc1)c1ccc(C2CCN(CCCN3CCN(c4ccc5c(c4)CN(C4CCC(=O)NC4=O)C5=O)CC3)CC2)cc1)c1ccccc1 (centres unmarked): < 10 nM

For the 3 molecules below, give their DC50 values.
1. CC/C(=C(/c1ccc(OCCN2CCN(CC3CCN(c4ccc5c(c4)CN(C4CCC(=O)NC4=O)C5=O)CC3)CC2)cc1)c1ccc(B(O)O)cc1)c1ccccc1 (centres unmarked)
2. CC/C(=C(\c1ccc(O)cc1)c1ccc(N2CCN(C(=O)N3CCN(c4ccc5c(c4)CN([C@@H]4CCC(=O)NC4=O)C5=O)CC3)CC2)cc1)c1ccccc1
3. CC/C(=C(/c1ccc(B(O)O)cc1)c1ccc(N2CCN(C(=O)N3CCC(CN4CCN(c5ccc6c(c5)CN(C5CCC(=O)NC5=O)C6=O)CC4)CC3)CC2)cc1)c1ccccc1 (centres unmarked)

Result:
1. < 10 nM
2. 10 to 50 nM
3. < 10 nM

For the 3 molecules below, give their DC50 values.
1. CC/C(=C(\c1ccc(O)cc1)c1ccc(N2CCN(C(=O)N3CCN(c4ccc5c(c4)CN([C@H]4CCC(=O)NC4=O)C5=O)CC3)CC2)cc1)c1ccccc1
2. CC/C(=C(\c1ccc(B(O)O)cc1)c1ccc(N2CCN(CCC3CCN(c4ccc5c(c4)CN(C4CCC(=O)NC4=O)C5=O)CC3)CC2)cc1)c1ccccc1 (centres unmarked)
3. CC/C(=C(/c1ccc(OCCN2CCC(C3CCN(c4ccc5c(c4)C(=O)N(C4CCC(=O)NC4=O)C5=O)CC3)CC2)cc1)c1ccc(B(O)O)cc1)c1ccccc1 (centres unmarked)

Result:
10 to 50 nM
< 10 nM
< 10 nM

For the 4 molecules below, give their DC50 values.
1. CC/C(=C(/c1ccc(O)cc1)c1ccc(N2CCN(C(=O)N3CCC(N4CCN(c5ccc6c(c5)CN(C5CCC(=O)NC5=O)C6=O)CC4)CC3)CC2)cc1)c1ccccc1 (centres unmarked)
2. CC/C(=C(/c1ccc(O)cc1)c1ccc(OCCN2CCN(C(=O)N3CCN(c4ccc5c(c4)CN([C@@H]4CCC(=O)NC4=O)C5=O)CC3)CC2)cc1)c1ccccc1
3. CC/C(=C(/c1ccc(B(O)O)cc1)c1ccc(N2CCC(CCN3CCN(c4ccc5c(c4)C(=O)N(C4CCC(=O)NC4=O)C5=O)CC3)CC2)cc1)c1ccccc1 (centres unmarked)
4. CC/C(=C(/c1ccc(B(O)O)cc1)c1ccc(C2CCN(CCCN3CCN(c4ccc5c(c4)C(=O)N(C4CCC(=O)NC4=O)C5=O)CC3)CC2)cc1)c1ccccc1 (centres unmarked)

Result:
10 to 50 nM
< 10 nM
10 to 50 nM
< 10 nM

---

target: ERα (Homo sapiens, UniProt P03372); construct: endogenous in cells; host or cells: MCF-7; assay: ER degradation in MCF-7 cells (Western blot); format: cell-based; conditions: MCF7, Maximal ER degradation, read-out: Dmax
Readout name: Dmax

Solved entries (count: 5):
CC/C(=C(\c1ccc(OCCN2CCN(CCCN3CCN(c4ccc5c(c4)C(=O)N(C4CCC(=O)NC4=O)C5=O)CC3)CC2)cc1)c1ccc(B(O)O)cc1)c1ccccc1 (centres unmarked): > 90%
CC/C(=C(/c1ccc(OCCN2CCN(C(=O)N3CCN(c4ccc5c(c4)CN([C@H]4CCC(=O)NC4=O)C5=O)CC3)CC2)cc1)c1ccc(B(O)O)cc1)c1ccccc1: > 90%
CC/C(=C(/c1ccc(OCCN2CCC(N3CCN(c4ccc5c(c4)C(=O)N(C4CCC(=O)NC4=O)C5=O)CC3)CC2)cc1)c1ccc(B(O)O)cc1)c1ccccc1 (centres unmarked): > 90%
CC/C(=C(/c1ccc(OCCN2CCN(CC3CCN(c4ccc5c(c4)C(=O)N(C4CCC(=O)NC4=O)C5=O)CC3)CC2)cc1)c1ccc(B(O)O)cc1)c1ccccc1 (centres unmarked): > 90%
CC/C(=C(\c1ccc(OCCN2CCC(CN3CCN(c4ccc5c(c4)CN([C@@H]4CCC(=O)NC4=O)C5=O)CC3)CC2)cc1)c1ccc(B(O)O)cc1)c1ccccc1: > 90%

For the 2 compounds below, give their Dmax values.
1. CC/C(=C(\c1ccc(OCCN2CCC(CCN3CCN(c4ccc5c(c4)C(=O)N(C4CCC(=O)NC4=O)C5=O)CC3)CC2)cc1)c1ccc(B(O)O)cc1)c1ccccc1 (centres unmarked)
2. CC/C(=C(\c1ccc(B(O)O)cc1)c1ccc(N2CCC(CN3CCN(c4ccc5c(c4)CN(C4CCC(=O)NC4=O)C5=O)CC3)CC2)cc1)c1ccccc1 (centres unmarked)

Result:
> 90%
> 90%

---

Target: ERα (Homo sapiens, UniProt P03372)
Construct: endogenous in cells; host or cells: MCF-7
Sequence (P03372 1-595): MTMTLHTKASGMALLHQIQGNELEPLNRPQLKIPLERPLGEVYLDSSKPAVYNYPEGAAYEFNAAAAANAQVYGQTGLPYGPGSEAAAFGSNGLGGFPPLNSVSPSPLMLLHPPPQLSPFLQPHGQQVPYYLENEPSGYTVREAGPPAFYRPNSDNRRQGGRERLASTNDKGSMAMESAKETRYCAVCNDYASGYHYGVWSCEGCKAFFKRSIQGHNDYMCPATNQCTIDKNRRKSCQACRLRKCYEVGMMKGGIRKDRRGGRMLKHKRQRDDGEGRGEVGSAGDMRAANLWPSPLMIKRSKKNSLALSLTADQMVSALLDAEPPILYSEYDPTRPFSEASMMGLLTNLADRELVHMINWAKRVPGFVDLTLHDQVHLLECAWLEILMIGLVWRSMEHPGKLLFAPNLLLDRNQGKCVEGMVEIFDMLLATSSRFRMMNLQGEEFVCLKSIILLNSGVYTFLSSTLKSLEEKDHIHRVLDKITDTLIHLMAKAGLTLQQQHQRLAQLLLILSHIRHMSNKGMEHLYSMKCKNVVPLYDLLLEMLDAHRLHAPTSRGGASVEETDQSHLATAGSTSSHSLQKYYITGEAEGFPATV
Assay: ER degradation in MCF-7 cells (Western blot)
Assay type: cell-based
Details: ER degradation, 24 hours
Can you tell me DC50 for the items I'm about to list?

Solved entries (count: 3):
CC/C(=C(\c1ccc(OCCN2CCC(CCN3CCN(c4ccc5c(c4)C(=O)N(C4CCC(=O)NC4=O)C5=O)CC3)CC2)cc1)c1ccc(B(O)O)cc1)c1ccccc1 (stereo not drawn): < 10 nM
CC/C(=C(\c1ccc(OCCN2CCN(C(=O)N3CCC(N4CCN(c5ccc6c(c5)CN(C5CCC(=O)NC5=O)C6=O)CC4)CC3)CC2)cc1)c1ccc(B(O)O)cc1)c1ccccc1 (stereo not drawn): 10 to 50 nM
CC/C(=C(\c1ccc(B(O)O)cc1)c1ccc(N2CCN(C(=O)N3CCN(c4ccc5c(c4)CN([C@@H]4CCC(=O)NC4=O)C5=O)CC3)CC2)cc1)c1ccccc1: < 10 nM

For the 5 compounds below, give their DC50 values.
1. CC/C(=C(/c1ccc(B(O)O)cc1)c1ccc(N2CCN(CCN3CCN(c4ccc5c(c4)CN(C4CCC(=O)NC4=O)C5=O)CC3)CC2)cc1)c1ccccc1 (stereo not drawn)
2. CC/C(=C(\c1ccc(B(O)O)cc1)c1ccc(N2CCN(C(=O)N3CCC(CN4CCN(c5ccc6c(c5)CN(C5CCC(=O)NC5=O)C6=O)CC4)CC3)CC2)cc1)c1ccccc1 (stereo not drawn)
3. CC/C(=C(/c1ccc(B(O)O)cc1)c1ccc(N2CCN(CCN3CCN(c4ccc5c(c4)C(=O)N(C4CCC(=O)NC4=O)C5=O)CC3)CC2)cc1)c1ccccc1 (stereo not drawn)
4. CC/C(=C(\c1ccc(OCCN2CCN(C(=O)N3CCN(c4ccc5c(c4)CN(C4CCC(=O)NC4=O)C5=O)CC3)CC2)cc1)c1ccc(B(O)O)cc1)c1ccccc1 (stereo not drawn)
5. CC/C(=C(\c1ccc(B(O)O)cc1)c1ccc(N2CCC(CNC3CCN(c4ccc5c(c4)C(=O)N(C4CCC(=O)NC4=O)C5)CC3)CC2)cc1)c1ccccc1 (stereo not drawn)

Result:
< 10 nM
< 10 nM
10 to 50 nM
< 10 nM
< 10 nM

For the 8 compounds below, give their DC50 values.
1. CC/C(=C(\c1ccc(O)cc1)c1ccc(OCCN2CCN(C(=O)N3CCC(N4CCN(c5ccc6c(c5)CN(C5CCC(=O)NC5=O)C6=O)CC4)CC3)CC2)cc1)c1ccccc1 (stereo not drawn)
2. CC/C(=C(/c1ccc(B(O)O)cc1)c1ccc(N2CCC(CNC3CCN(c4ccc5c(c4)C(=O)N(C4CCC(=O)NC4=O)C5)CC3)CC2)cc1)c1ccccc1 (stereo not drawn)
3. CC/C(=C(/c1ccc(B(O)O)cc1)c1ccc(N2CCC(CCCN3CCN(c4ccc5c(c4)CN(C4CCC(=O)NC4=O)C5=O)CC3)CC2)cc1)c1ccccc1 (stereo not drawn)
4. CC/C(=C(\c1ccc(OCCN2CCN(CCCN3CCN(c4ccc5c(c4)C(=O)N(C4CCC(=O)NC4=O)C5=O)CC3)CC2)cc1)c1ccc(B(O)O)cc1)c1ccccc1 (stereo not drawn)
5. CC/C(=C(/c1ccc(OCCN2CCC(CN3CCN(c4ccc5c(c4)C(=O)N(C4CCC(=O)NC4=O)C5=O)CC3)CC2)cc1)c1ccc(B(O)O)cc1)c1ccccc1 (stereo not drawn)
6. CC/C(=C(\c1ccc(O)cc1)c1ccc(OCCN2CCN(C(=O)N3CCN(c4ccc5c(c4)CN(C4CCC(=O)NC4=O)C5=O)CC3)CC2)cc1)c1ccccc1 (stereo not drawn)
7. CC/C(=C(\c1ccc(OCCN2CCN(CCC3CCN(c4ccc5c(c4)C(=O)N(C4CCC(=O)NC4=O)C5=O)CC3)CC2)cc1)c1ccc(B(O)O)cc1)c1ccccc1 (stereo not drawn)
8. CC/C(=C(/c1ccc(OCCN2CCN(CCCNc3ccc4c(c3)C(=O)N(C3CCC(=O)NC3=O)C4=O)CC2)cc1)c1ccc(B(O)O)cc1)c1ccccc1 (stereo not drawn)

Result:
1: 10 to 50 nM; 2: < 10 nM; 3: < 10 nM; 4: < 10 nM; 5: 10 to 50 nM; 6: < 10 nM; 7: < 10 nM; 8: 10 to 50 nM

For the 5 compounds below, give their DC50 values.
1. CC/C(=C(/c1ccc(OCCN2CCN(CC3CCN(c4ccc5c(c4)CN([C@@H]4CCC(=O)NC4=O)C5=O)CC3)CC2)cc1)c1ccc(B(O)O)cc1)c1ccccc1
2. CC/C(=C(/c1ccc(O)cc1)c1ccc(N2CCN(C(=O)N3CCC(CN4CCN(c5ccc6c(c5)CN(C5CCC(=O)NC5=O)C6=O)CC4)CC3)CC2)cc1)c1ccccc1 (stereo not drawn)
3. CC/C(=C(/c1ccc(B(O)O)cc1)c1ccc(N2CCC(CN3CCN(c4ccc5c(c4)C(=O)N(C4CCC(=O)NC4=O)C5)CC3)CC2)cc1)c1ccccc1 (stereo not drawn)
4. CC/C(=C(\c1ccc(B(O)O)cc1)c1ccc(N2CCN(C(=O)N3CCN(c4ccc5c(c4)CN([C@H]4CCC(=O)NC4=O)C5=O)CC3)CC2)cc1)c1ccccc1
5. CC/C(=C(\c1ccc(B(O)O)cc1)c1ccc(N2CCN(CCCN3CCN(c4ccc5c(c4)CN(C4CCC(=O)NC4=O)C5=O)CC3)CC2)cc1)c1ccccc1 (stereo not drawn)

Result:
1. < 10 nM
2. < 10 nM
3. > 50 nM
4. < 10 nM
5. < 10 nM
